The reported numbers originate from the supplement of paper PMC10567573.

B1: IMPA1 (parent)
chain: FIGEESVAAGEKSILTDNPTWIID

- Variants of: B1
- assayRemarks: protein stability index of a GFP-peptide fusion (GPS, HEK-293T) (PSI 1-6); higher = more stable;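 further: lentivirally expressed fusions sorted by FACS into six bins by GFP to DsRed ratio, PSI derived from sequencing read proportions per bin multiplied by bin number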
- conditionParameters: c terminus: a fixed tail appended
quantityMeasured: protein stability index
Reply with the value as a number alone.

INSERT INTO results (biosequence, quantitymeasured, val) VALUES
  ('FIGEESVAAGEKSRLTDNPTWIID [I14R]', 'protein stability index', 1.99);

Prompt: Read off the recorded protein stability index for FIGEESVAAGEKIILTDNPTWIID [S13I]
Completion: 1.99

Prompt: Read off the recorded protein stability index for FIAEESVAAGEKSILTDNPTWIID [G3A]
Completion: 2.05

Prompt: Read off the recorded protein stability index for FIGEESVQAGEKSILTDNPTWIID [A8Q]
Completion: 2.29

Prompt: Read off the recorded protein stability index for FIGEESVAAGEKSILEDNPTWIID [T16E]
Completion: 2.64

Prompt: Read off the recorded protein stability index for FIGEESVAAGEKSILTDFPTWIID [N18F]
Completion: 2.46

Prompt: Read off the recorded protein stability index for FIGEESVAAGEKSILTDNPTWLID [I22L]
Completion: 2.67

Prompt: Read off the recorded protein stability index for FIFEESVAAGEKSILTDNPTWIID [G3F]
Completion: 1.93

Prompt: Read off the recorded protein stability index for FIGEESVAANEKSILTDNPTWIID [G10N]
Completion: 2.21

Prompt: Read off the recorded protein stability index for FIGEESVAAGERSILTDNPTWIID [K12R]
Completion: 2.57

Prompt: Read off the recorded protein stability index for FIGEESGAAGEKSILTDNPTWIID [V7G]
Completion: 2.15

Prompt: Read off the recorded protein stability index for FIGEESVAAGEKSILTDEPTWIID [N18E]
Completion: 3.48

Prompt: Read off the recorded protein stability index for FIGEESVAAGEKSILTDNPTWIIE [D24E]
Completion: 2.03

Prompt: Read off the recorded protein stability index for FIGEESVAAGEQSILTDNPTWIID [K12Q]
Completion: 1.97

Prompt: Read off the recorded protein stability index for FIGEESVAAGEKSILTDNPTWIIS [D24S]
Completion: 1.76

Prompt: Read off the recorded protein stability index for FPGEESVAAGEKSILTDNPTWIID [I2P]
Completion: 3.05

Prompt: Read off the recorded protein stability index for FIGEESVAAGEKSILTDNPAWIID [T20A]
Completion: 2.43

Prompt: Read off the recorded protein stability index for FIGEMSVAAGEKSILTDNPTWIID [E5M]
Completion: 2.31
